- ASSAY COMMENT: Oral bioavailability in rat at 13 mg/kg, po
- Type: ADME, organism-based
- PROTOCOL CONDITIONS: in vivo
READOUT NAME: bioavailability (%)
Reply numerically in %, unit not repeated.

Input: Provide one value: measured bioavailability of Cc1cc(C)cc(C(CC(C)C)NC(=O)c2cc(COc3cccc(F)c3)ccc2CCC(=O)O)c1 (stereo unspecified)
Output: 23

----------
- ASSAY COMMENT: AUC in rat at 11 mg/kg, po
- Assay type: ADME, organism-based
- Parameters: dose 11 mg/kg, route oral
- PROTOCOL CONDITIONS: plasma
READOUT NAME: AUC (ng·h/mL)
Response body: numeric value in ng·h/mL, unit text excluded.

Input: Read off the recorded AUC for Cc1cc(C)cc(C(CC(C)C)NC(=O)c2cc(COc3cc(F)ccc3F)ccc2CCC(=O)O)c1 (stereo unspecified)
Output: 850

----------
Entries and their log10(IC50) values follow.
- TARGET UNDER TEST: Prostaglandin E2 receptor EP3 subtype (Mus musculus, UniProt P30557)
- Sequence (P30557 whole entry): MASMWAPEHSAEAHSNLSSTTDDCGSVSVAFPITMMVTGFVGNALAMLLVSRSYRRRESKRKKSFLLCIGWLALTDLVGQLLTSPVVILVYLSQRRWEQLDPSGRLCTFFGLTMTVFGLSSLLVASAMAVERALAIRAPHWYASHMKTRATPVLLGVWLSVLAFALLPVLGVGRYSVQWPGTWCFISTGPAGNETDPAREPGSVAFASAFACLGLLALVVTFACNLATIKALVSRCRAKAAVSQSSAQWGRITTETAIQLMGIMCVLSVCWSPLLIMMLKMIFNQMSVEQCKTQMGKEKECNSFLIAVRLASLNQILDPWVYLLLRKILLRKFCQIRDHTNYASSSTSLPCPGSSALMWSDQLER
- ASSAY COMMENT: Antagonist activity at mouse EP3 receptor expressed in CHO cells assessed as inhibition of PGE2-induced increase intracellular calcium level in presence of 1% BSA by fluorimetry
In plain terms, each number is the log10 of measured IC50 in nM.

Recorded results for 3 compounds are shown here.
| COMPOUND | TARGET UNDER TEST | READOUT NAME | TEST RESULT |
| --- | --- | --- | --- |
| CC(C)CC(NC(=O)c1cc(COc2ccccc2)ccc1CCC(=O)O)c1ccc2c(c1)OCCO2 (centres undefined) | Prostaglandin E2 receptor EP3 subtype (Mus musculus, UniProt P30557) | log10(IC50) | 1.28 |
| CC(C)CC(NC(=O)c1cc(COc2ccccc2)ccc1CCC(=O)O)c1ccccc1F (centres undefined) | Prostaglandin E2 receptor EP3 subtype (Mus musculus, UniProt P30557) | log10(IC50) | 2.11 |
| Cc1cc(C)cc(C(CC(C)C)NC(=O)c2cc(COc3cccc(F)c3F)ccc2CCC(=O)O)c1 (centres undefined) | Prostaglandin E2 receptor EP3 subtype (Mus musculus, UniProt P30557) | log10(IC50) | 0.56 |

Input: Output reported log10(IC50) of the compound Cc1cc(C)cc(C(CC(C)C)NC(=O)c2cc(COc3c(F)cccc3F)ccc2CCC(=O)O)c1 (centres undefined) on Prostaglandin E2 receptor EP3 subtype (Mus musculus, UniProt P30557).
Output: 1.77

Input: Report value: log10(IC50), system: Prostaglandin E2 receptor EP3 subtype (Mus musculus, UniProt P30557), compound: COc1ccccc1C(CC(C)C)NC(=O)c1cc(COc2ccccc2)ccc1CCC(=O)O (centres undefined)
Output: 2.28

Input: Provide log10(IC50), system Prostaglandin E2 receptor EP3 subtype (Mus musculus, UniProt P30557), entry CC(C)CC(NC(=O)c1cc(COc2ccccc2)ccc1CCC(=O)O)c1cc(F)cc(C(F)(F)F)c1 (centres undefined)
Output: 1.18

Input: Quote Prostaglandin E2 receptor EP3 subtype (Mus musculus, UniProt P30557) log10(IC50) for entry Cc1cc(C)cc(C(CC(C)C)NC(=O)c2cc(COc3cc(F)cc(F)c3)ccc2CCC(=O)O)c1 (centres undefined) .
Output: 1.00

Input: Jot down log10(IC50) (Prostaglandin E2 receptor EP3 subtype (Mus musculus, UniProt P30557)) of CC(C)CC(NC(=O)c1cc(COc2ccccc2)ccc1CCC(=O)O)c1cc(F)cc(F)c1 (centres undefined) .
Output: 1.28

Input: Report the value of log10(IC50) obtained on Prostaglandin E2 receptor EP3 subtype (Mus musculus, UniProt P30557) for COc1ccc(C(CC(C)C)NC(=O)c2cc(COc3ccccc3)ccc2CCC(=O)O)cc1F (centres undefined) .
Output: 1.62

Input: State log10(IC50) on Prostaglandin E2 receptor EP3 subtype (Mus musculus, UniProt P30557). Entry: COc1ccc(C(CC(C)C)NC(=O)c2cc(COc3ccccc3)ccc2CCC(=O)O)cc1OC (centres undefined)
Output: 1.38

Input: Give reported log10(IC50) for CC(C)CC(NC(=O)c1cc(COc2ccccc2)ccc1CCC(=O)O)c1ccc(F)cc1 (centres undefined) (Prostaglandin E2 receptor EP3 subtype (Mus musculus, UniProt P30557))
Output: 1.30

Input: Under Prostaglandin E2 receptor EP3 subtype (Mus musculus, UniProt P30557), report log10(IC50) for CC(C)CC(NC(=O)c1cc(COc2ccccc2)ccc1CCC(=O)O)c1cccc(C(F)(F)F)c1 (centres undefined)
Output: 1.59

Input: Look up Prostaglandin E2 receptor EP3 subtype (Mus musculus, UniProt P30557) data: log10(IC50) of Cc1cc(C(CC(C)C)NC(=O)c2cc(COc3cccc(C#N)c3)ccc2CCC(=O)O)ccc1F (centres undefined) , then report it.
Output: 0.45

Source: ChEMBL document CHEMBL1157546
